Source: paper PMC8621456

Test system: H37Rv (katG^del)
Assay: microbe, parasite or virus in culture
Type: cell-based
Details: Mycobacterium tuberculosis, isoniazid mono-resistant strain
Labelling: MIC reported below 8 µM becomes Satisfied; at or above becomes Not satisfied.

- Molecule: "CO[C@H]1/C=C/O[C@@]2(C)Oc3c(C)c(O)c4c(O)c(c(/C=N/N5CCN(C)CC5)c(O)c4c3C2=O)NC(=O)/C(C)=C\\C=C\\[C@H](C)[C@H](O)[C@@H](C)[C@@H](O)[C@@H](C)[C@H](OC(C)=O)[C@@H]1C [Rifampin, reference compound]"
  Group: "Satisfied"
- Molecule: "C=C(C)[C@@H]1CC[C@]2(C(=O)NC3CCCCC3)CC[C@]3(C)[C@H](CC[C@@H]4[C@@]5(C)CCCNC(C)(C)[C@@H]5CC[C@]43C)[C@@H]12"
  Group: "Satisfied"
- Molecule: "C=C(CN=[N+]=[N-])[C@@H]1CC[C@]2(COC(C)=O)CC[C@]3(C)[C@H](CC[C@@H]4[C@@]5(C)CCCNC(C)(C)[C@@H]5CC[C@]43C)[C@@H]12"
  Group: "Not satisfied"
- Molecule: "O=[N+]([O-])c1cn2c(n1)OC[C@@H](OCc1ccc(OC(F)(F)F)cc1)C2 [Pretomanid, reference compound]"
  Group: "Satisfied"
- Molecule: "C=C(C)[C@@H]1CC[C@]2(COC(=O)c3cccnc3)CC[C@]3(C)[C@H](CC[C@@H]4[C@@]5(C)CCCNC(C)(C)[C@@H]5CC[C@]43C)[C@@H]12"
  Group: "Satisfied"
- Molecule: "COc1c(N2C[C@@H]3CCCN[C@@H]3C2)c(F)cc2c(=O)c(C(=O)O)cn(C3CC3)c12 [Moxifloxacin, reference compound]"
  Group: "Satisfied"

# input In the record for "C=C(CBr)[C@@H]1CC[C@]2(COC(C)=O)CC[C@]3(C)[C@H](CC[C@@H]4[C@@]5(C)CCCNC(C)(C)[C@@H]5CC[C@]43C)[C@@H]12" , is MIC less than 8 µM?
# output Not satisfied

# input In the record for "C=C(C)[C@@H]1CC[C@]2(C)CC[C@]3(C)[C@H](CC[C@@H]4[C@@]5(C)CCCNC(C)(C)[C@@H]5CC[C@]43C)[C@@H]12" , is MIC less than 8 µM?
# output Satisfied
